B1: MATN2 (parent)
chain: FSLKTFKRKSEVERAVKRMRHLST

# Variants of: B1
# PROTOCOL_NOTES: protein stability index of a GFP-peptide fusion (GPS, HEK-293T) (PSI 1-6); higher = more stable;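 note: lentivirally expressed fusions sorted by FACS into six bins by GFP to DsRed ratio, PSI derived from sequencing read proportions per bin multiplied by bin number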
# CONDITION_PARAMETERS: c terminus: a fixed tail appended
Record true (1) whenever protein stability index is at 2 or higher; record false (0) when lower.

Worked examples follow.
FSLKTFKRKSEVERAVKRMRHEST [L22E]; true (1)
FSLKTFKRKSQVERAVKRMRHLST [E11Q]; true (1)
FSYKTFKRKSEVERAVKRMRHLST [L3Y]; true (1)
FSLKTFKRKSEVERAVKHMRHLST [R18H]; true (1)
FSLKKFKRKSEVERAVKRMRHLST [T5K]; true (1)

Please look at the following variant next.
Request: Test whether the variant FSLKQFKRKSEVERAVKRMRHLST [T5Q] records protein stability index of 2 or higher.
Response: true (1)
